# credit: patent US20210087159A1

Test system: TNF-α
TEST_PROTOCOL: LPS induced cytokine release assay, TNF-α by ELISA in PBMCs
Type: cell-based
EXPERIMENTAL_PARAMETERS: compound 1 μM + 0.1 μg/mL LPS, human PBMCs, 72 h, ELISA (LPS control 18.16)
Protocol: This study was aimed to test the effect of 12 compounds (THCA, Ia1, Ia5, Ia6, Ia9, Ia11, Ia15, Ia17, Ia24, Ia25, Ia27, and Ia28) on human peripheral blood mononuclear cells (PBMCs) challenged by lipopolysaccharide (LPS) through monitoring multiple inflammatory endpoints. […] LPS (0.1 μg/mL, 100 μL) was added into each well. […] Cell proliferation was detected by CTG.
// boundary case: TNF-α equal to 20 pg/mL maps to 0; strictly smaller maps to 1

[[record]]
compound = "CCCCCc1cc2c(c(O)c1C(=O)Nc1ccc(N3CCOCC3)cc1)[C@@H]1C=C(C)CC[C@H]1C(C)(C)O2"
tested_target = "TNF-α"
cat = 1

[[record]]
compound = "CCCCCc1cc2c(c(O)c1C(=O)NCc1ccncc1)[C@@H]1C=C(C)CC[C@H]1C(C)(C)O2"
tested_target = "TNF-α"
cat = 0

[[record]]
compound = "CCCCCc1cc2c(c(O)c1C(=O)S)[C@@H]1C=C(C)CC[C@H]1C(C)(C)O2"
tested_target = "TNF-α"
cat = 0

[[record]]
compound = "CCCCCc1cc2c(c(O)c1C(=O)O)[C@@H]1C=C(C)CC[C@H]1C(C)(C)O2 [THCA, tetrahydrocannabinolic acid, reference compound]"
tested_target = "TNF-α"
cat = 0

[[record]]
compound = "CCCCCc1cc2c(c(O)c1C(=O)NCCN(C)C)[C@@H]1C=C(C)CC[C@H]1C(C)(C)O2"
tested_target = "TNF-α"
cat = 1

